Experiment: activity coefficient (dimensionless); of the first substance listed, at infinite dilution; xn = mol fraction of the nth substance listed
Details: 323.15 K; Liquid; dilutor; x1 = 0
The entries below are paired with their reported activity coefficient.
Value type: activity coefficient

1) CCO [ethanol] + CCCC[N+]1(C)CCCC1.O=S(=O)([N-]S(=O)(=O)C(F)(F)F)C(F)(F)F	1.63
2) C=CCCCC [hex-1-ene] + CCCCCC[n+]1ccn(C)c1.O=S(=O)([N-]S(=O)(=O)C(F)(F)F)C(F)(F)F	4.48
3) CCCCCC [hexane] + CCCCCC[n+]1ccn(C)c1.O=S(=O)([N-]S(=O)(=O)C(F)(F)F)C(F)(F)F	6.96
4) CC(C)O [propan-2-ol] + CCCC[N+]1(C)CCCC1.O=S(=O)([N-]S(=O)(=O)C(F)(F)F)C(F)(F)F	1.77

* * *

# activity coefficient listing for each entry below
Assay: activity coefficient (dimensionless); of the first substance listed, at infinite dilution; xn = mol fraction of the nth substance listed
Conditions: 333.15 K; Liquid; Chromatography; x1 = 0
Value type: activity coefficient

1) Cc1ccccc1C [1,2-dimethylbenzene] + CCCCCCCCn1cc[n+](C)c1.O=S(=O)([N-]S(=O)(=O)C(F)(F)F)C(F)(F)F	1.05
2) C1CCOC1 [tetrahydrofuran] + CCCCCC[n+]1ccn(C)c1.O=S(=O)([N-]S(=O)(=O)C(F)(F)F)C(F)(F)F	0.55
3) CCCCCC [hexane] + CCCCCC[n+]1ccn(C)c1.O=S(=O)([N-]S(=O)(=O)C(F)(F)F)C(F)(F)F	7.27
4) C1CCCCC1 [cyclohexane] + CCCCCC[n+]1ccn(C)c1.O=S(=O)([N-]S(=O)(=O)C(F)(F)F)C(F)(F)F	4.75
5) c1ccccc1 [benzene] + CCCCCCCCn1cc[n+](C)c1.O=S(=O)([N-]S(=O)(=O)C(F)(F)F)C(F)(F)F	0.66
6) C=CCCCCC [1-heptene] + CCCCCCCCn1cc[n+](C)c1.O=S(=O)([N-]S(=O)(=O)C(F)(F)F)C(F)(F)F	4.13
7) CCCC(C)=O [pentan-2-one] + CCCCCC[n+]1ccn(C)c1.O=S(=O)([N-]S(=O)(=O)C(F)(F)F)C(F)(F)F	0.55
8) CO [methanol] + CCCCCCCCn1cc[n+](C)c1.O=S(=O)([N-]S(=O)(=O)C(F)(F)F)C(F)(F)F	0.96
9) C=CCCCCC [1-heptene] + CCCCCC[n+]1ccn(C)c1.O=S(=O)([N-]S(=O)(=O)C(F)(F)F)C(F)(F)F	5.96
10) CCCO [propan-1-ol] + CCCCCC[n+]1ccn(C)c1.O=S(=O)([N-]S(=O)(=O)C(F)(F)F)C(F)(F)F	1.45
11) Cc1ccc(C)cc1 [1,4-dimethylbenzene] + CCCCCC[n+]1ccn(C)c1.O=S(=O)([N-]S(=O)(=O)C(F)(F)F)C(F)(F)F	1.51
12) CCC(C)(C)OC [2-methoxy-2-methylbutane] + CCCCCC[n+]1ccn(C)c1.O=S(=O)([N-]S(=O)(=O)C(F)(F)F)C(F)(F)F	2.02
13) c1ccccc1 [benzene] + CCCCCC[n+]1ccn(C)c1.O=S(=O)([N-]S(=O)(=O)C(F)(F)F)C(F)(F)F	0.79
14) C=CCCCC [hex-1-ene] + CCCCCCCCn1cc[n+](C)c1.O=S(=O)([N-]S(=O)(=O)C(F)(F)F)C(F)(F)F	3.18
15) C=CCCCCCC [oct-1-ene] + CCCCCCCCn1cc[n+](C)c1.O=S(=O)([N-]S(=O)(=O)C(F)(F)F)C(F)(F)F	5.28
16) C=CCCC [1-pentene] + CCCCCCCCn1cc[n+](C)c1.O=S(=O)([N-]S(=O)(=O)C(F)(F)F)C(F)(F)F	2.45
17) CCCCC [pentane] + CCCCCC[n+]1ccn(C)c1.O=S(=O)([N-]S(=O)(=O)C(F)(F)F)C(F)(F)F	5.52
18) C1=CCCCC1 [cyclohexene] + CCCCCC[n+]1ccn(C)c1.O=S(=O)([N-]S(=O)(=O)C(F)(F)F)C(F)(F)F	3.14
19) CCCO [propan-1-ol] + CCCCCCCCn1cc[n+](C)c1.O=S(=O)([N-]S(=O)(=O)C(F)(F)F)C(F)(F)F	1.24
20) CCCCCCCC [octane] + CCCCCC[n+]1ccn(C)c1.O=S(=O)([N-]S(=O)(=O)C(F)(F)F)C(F)(F)F	13
21) CCOC(C)(C)C [2-ethoxy-2-methylpropane] + CCCCCC[n+]1ccn(C)c1.O=S(=O)([N-]S(=O)(=O)C(F)(F)F)C(F)(F)F	2.82
22) CCO [ethanol] + CCCCCC[n+]1ccn(C)c1.O=S(=O)([N-]S(=O)(=O)C(F)(F)F)C(F)(F)F	1.27
